# runDescription: AUC (0 to t) in mouse at 1 mg/kg, po measured at 5 to 1440 mins by LC-MS analysis
# Assay type: ADME, organism-based
# Design: time 5-1440 min, dose 1 mg/kg, route po
# conditionDescription: in vivo
readoutName: AUC(0-t)

**Query** For CCc1ccc(N(C2CCC2)S(=O)(=O)c2ccc3c(c2)C(O)CC(C2CCOCC2)O3)cc1 (stereo unspecified) , write its AUC(0-t).
**Result** 285 ng·h/mL

---

# runDescription: Lipophilicity, log D of the compound at pH 7.4
# Assay type: physicochemical
# conditionDescription: buffer
So basically: logD at 4 or higher? That is fulfilled. Lower than 4? That is not fulfilled.

**Query** Is it the case that CCc1ccc(N(CC(C)C)S(=O)(=O)c2ccc3c(c2)C=CC(C2CCOCC2)O3)cc1 (stereo not drawn) has logD reaching or exceeding 4?
**Result** fulfilled

**Query** Is it the case that CCc1ccc(N(CC(C)C)S(=O)(=O)c2ccc3c(c2)C(O)CC(C2CCOCC2)O3)cc1 (stereo not drawn) has logD reaching or exceeding 4?
**Result** fulfilled

**Query** Is it the case that CCc1ccc(N(CC(C)C)S(=O)(=O)c2ccc3c(c2)CCC3OC2CCOCC2)cc1 (stereo not drawn) has logD reaching or exceeding 4?
**Result** fulfilled

**Query** Is it the case that CCc1ccc(N(CC(C)C)S(=O)(=O)c2ccc3c(c2)C(OC)CC(C2CCOCC2)O3)cc1 (stereo not drawn) has logD reaching or exceeding 4?
**Result** fulfilled

**Query** Is it the case that CCc1ccc(N(CC(C)C)S(=O)(=O)c2ccc3c(c2)C(N)CC(C2CCOCC2)O3)cc1 (stereo not drawn) has logD reaching or exceeding 4?
**Result** not fulfilled

**Query** Is it the case that CCc1ccc(N(CC(C)C)S(=O)(=O)c2ccc3c(c2)C(C)CC(C2CCOCC2)O3)cc1 (stereo not drawn) has logD reaching or exceeding 4?
**Result** fulfilled

**Query** Is it the case that CC(C)CN(c1ccc(N(C)C)cc1)S(=O)(=O)c1ccc2c(c1)C(O)CC(C1CCOCC1)O2 (stereo not drawn) has logD reaching or exceeding 4?
**Result** not fulfilled

**Query** Is it the case that CCc1ccc2c(c1)CC(C)CN2S(=O)(=O)c1ccc2c(c1)C(O)CC(C1CCOCC1)O2 (stereo not drawn) has logD reaching or exceeding 4?
**Result** not fulfilled

**Query** Is it the case that CCc1ccc(N(CC(C)C)S(=O)(=O)c2ccc3c(c2)C(O)CC(CC2CCOCC2)O3)cc1 (stereo not drawn) has logD reaching or exceeding 4?
**Result** fulfilled

**Query** Is it the case that CC(C)CN(c1cccc(F)c1)S(=O)(=O)c1ccc2c(c1)C(O)CC(C1CCOCC1)O2 (stereo not drawn) has logD reaching or exceeding 4?
**Result** not fulfilled

**Query** Is it the case that CCc1ccc(N(CC(C)C)S(=O)(=O)c2ccc3c(c2)C(OC2CCCCC2)CC(C2CCOCC2)O3)cc1 (stereo not drawn) has logD reaching or exceeding 4?
**Result** fulfilled

**Query** Is it the case that CCS(=O)(=O)c1ccc(CN(CC(C)C)S(=O)(=O)c2ccc3c(c2)C(O)CC(C2CCOCC2)O3)nc1 (stereo not drawn) has logD reaching or exceeding 4?
**Result** not fulfilled

**Query** Is it the case that "CCc1ccc(N(CC(C)C)S(=O)(=O)c2ccc3nc(C4CCOCC4)cc(O)c3c2)cc1" has logD reaching or exceeding 4?
**Result** fulfilled

**Query** Is it the case that O=S(=O)(c1ccc2c(c1)C(O)CC(C1CCOCC1)O2)N1CCC(c2ccccc2)CC1 (stereo not drawn) has logD reaching or exceeding 4?
**Result** not fulfilled

**Query** Is it the case that CC(C)CN(c1ccc(C#N)cc1)S(=O)(=O)c1ccc2c(c1)C(O)CC(C1CCOCC1)O2 (stereo not drawn) has logD reaching or exceeding 4?
**Result** not fulfilled

**Query** Is it the case that CCc1ccc(N(C2COC2)S(=O)(=O)c2ccc3c(c2)C(O)CC(C2CCOCC2)O3)cc1 (stereo not drawn) has logD reaching or exceeding 4?
**Result** not fulfilled

---

# runDescription: Cmax in mouse at 0.3 mg/kg, iv measured at 2 to 1440 mins by LC-MS analysis
# Assay type: ADME, organism-based
# Set-up: time 2-1440 min, dose 0.3 mg/kg, route iv
# conditionDescription: in vivo
readoutName: Cmax (ng/mL)
Field format: number, assumed ng/mL, no unit text.

**Query** For CCc1ccc(N(C2CCC2)S(=O)(=O)c2ccc3c(c2)C(O)CC(C2CCOCC2)O3)cc1 (stereo unspecified) , write its Cmax.
**Result** 83

---

# runDescription: Metabolic stability in human liver microsomes assessed as half life incubated for 5 to 30 mins by HPLC-MS/MS analysis
# Type: ADME, Microsome
# conditionDescription: liver microsomes, time 5-30 min
readoutName: half-life (h)
Field format: number, assumed h, no unit text.

**Query** For CCc1ccc(N(CC(C)C)S(=O)(=O)c2ccc3c(c2)C(O)CC(C2CCOCC2)O3)cc1 (stereo unspecified) , write its half-life.
**Result** 3.7

---

# runDescription: Lipophilicity, log D of the compound at pH 7.4
# Format: physicochemical
# conditionDescription: buffer
readoutName: logD
Reply briefly: the number, and no unit.

**Query** For Cc1ccc(N(C2CCC2)S(=O)(=O)c2ccc3c(c2)C(O)CC(C2CCOCC2)O3)c(C)c1 (stereo not given) , write its logD.
**Result** 3.77

**Query** For CCc1ccc(N(CC(C)C)S(=O)(=O)c2ccc3c(c2)C(O)CC(C2CCN(S(C)(=O)=O)CC2)O3)cc1 (stereo not given) , write its logD.
**Result** 3.22

**Query** For CCc1ccc(N(CC(C)C)S(=O)(=O)c2ccc3c(c2)C(O)C[C@H](C2CCOCC2)O3)cc1 (stereo not given in full) , write its logD.
**Result** 4.12

**Query** For CCc1ccc(N(CC(C)C)S(=O)(=O)c2ccc3c(c2)C(O)CC(C(C)C2CCOCC2)O3)cc1 (stereo not given) , write its logD.
**Result** 5.04

**Query** For CCc1ccc(N(CC(C)C)S(=O)(=O)c2ccc3c(c2)C(C)(O)CC(C2CCOCC2)O3)cc1 (stereo not given) , write its logD.
**Result** 4.19

**Query** For CCc1ccc(N(CC2CCC2)S(=O)(=O)c2ccc3c(c2)C(O)CC(C2CCOCC2)O3)cc1 (stereo not given) , write its logD.
**Result** 4.01

**Query** For O=S(=O)(c1ccc2c(c1)C(O)CC(C1CCOCC1)O2)N1CCCC1c1ccccc1C(F)(F)F (stereo not given) , write its logD.
**Result** 3.41

**Query** For CCc1ccc(N(CC(F)(F)F)S(=O)(=O)c2ccc3c(c2)C(O)CC(C2CCOCC2)O3)cc1 (stereo not given) , write its logD.
**Result** 3.88

**Query** For "CCc1ccc(N(CC(C)C)S(=O)(=O)c2ccc(OCC3CCOCC3)c(CN)c2)cc1" , write its logD.
**Result** 3.25

**Query** For CC(C)CN(c1ccccc1C(F)(F)F)S(=O)(=O)c1ccc2c(c1)C(O)CC(C1CCOCC1)O2 (stereo not given) , write its logD.
**Result** 4.14

---

# system: Nuclear receptor ROR-beta (Homo sapiens)
# Sequence (Q92753 whole entry, the tested form may be a part): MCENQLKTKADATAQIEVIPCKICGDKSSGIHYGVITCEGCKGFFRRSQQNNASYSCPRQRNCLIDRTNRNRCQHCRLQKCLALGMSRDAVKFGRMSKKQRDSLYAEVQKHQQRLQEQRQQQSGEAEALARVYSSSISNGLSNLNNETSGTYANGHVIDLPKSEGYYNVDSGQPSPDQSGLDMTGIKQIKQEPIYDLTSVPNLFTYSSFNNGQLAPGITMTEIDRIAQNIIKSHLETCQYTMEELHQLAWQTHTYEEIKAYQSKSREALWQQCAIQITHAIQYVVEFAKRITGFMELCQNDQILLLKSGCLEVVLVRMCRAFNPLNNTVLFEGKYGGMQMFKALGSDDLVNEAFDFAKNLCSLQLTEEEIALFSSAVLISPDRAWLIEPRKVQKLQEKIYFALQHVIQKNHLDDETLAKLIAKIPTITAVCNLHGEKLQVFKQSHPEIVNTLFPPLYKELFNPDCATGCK
# runDescription: Inhibition of human GAL4-fused RORbeta LBD transfected in HEK293T cell measured for 16 to 20 hrs by dual-glo luciferase assay
readoutName: IC50

**Query** Give the observed IC50 of CCc1ccc(N(C2CCC2)S(=O)(=O)c2ccc3c(c2)C(O)CC(C2CCOCC2)O3)cc1 (stereo unspecified) for Nuclear receptor ROR-beta (Homo sapiens).
**Result** > 10 µM

---

# runDescription: Half life in mouse at 0.3 mg/kg, iv measured at 2 to 1440 mins by LC-MS analysis
# Assay type: ADME, organism-based
# conditionDescription: in vivo, time 2-1440 min
readoutName: half-life (min)
Field format: number, assumed min, no unit text.

**Query** For CCc1ccc(N(C2CCC2)S(=O)(=O)c2ccc3c(c2)C(O)CC(C2CCOCC2)O3)cc1 (stereo unspecified) , write its half-life.
**Result** 52.2
